Assay: physchem
Everything with logP lower than 0.5 is 0.0; everything else, including exactly 0.5, is 1.0.

MOLECULE: CCCCOCCOCCOCCCC
GROUP LABEL: 1.0
--
MOLECULE: CCCOCC(C)O (stereo not drawn)
GROUP LABEL: 0.0
--
MOLECULE: COC(C)(C)CCO
GROUP LABEL: 0.0
--
MOLECULE: CCCCOCC(C)O (stereo not drawn)
GROUP LABEL: 1.0
--
MOLECULE: COCCOCCOCCOC
GROUP LABEL: 0.0

[ask] Please check the record "CCOCCOCCOC" and state if its logP is at or above 0.5.
[reply] 1.0

[ask] Please check the record CC(=O)OCC(C)OC(C)=O (stereo not drawn) [propylene glycol diacetate] and state if its logP is at or above 0.5.
[reply] 1.0

[ask] Please check the record CC(=O)OCCOC(C)=O [Ethylene glycol diacetate] and state if its logP is at or above 0.5.
[reply] 0.0

Hey, just so you know, these numbers are from patent US10245847B2.
